system: NCI-H1975; assay: Anticancer activity against human NCI-H1975 cells assessed as inhibition of cell growth at 10 uM measured by SRB method; type: functional
value_kind: inhibition at 10 µM
Include the unit right after the number.

These recorded examples may help you get a feel for the data.
molecule: CN(C)c1ccc(C2CC(c3ccc(-n4cncn4)cc3)=NN2S(=O)(=O)c2ccc(C(F)(F)F)cc2)cc1 (centres undefined)
measured_on: NCI-H1975
inhibition at 10 µM: 5.5%
--
molecule: CN(C)c1ccc(C2CC(c3ccc(-n4cncn4)cc3)=NN2S(=O)(=O)c2ccc(Br)cc2)cc1 (centres undefined)
measured_on: NCI-H1975
inhibition at 10 µM: -0.6%
--
molecule: CN1CCN(c2ccc(C3=NN(C(=O)c4ccc(F)cc4)C(c4ccc(N(C)C)cc4)C3)cc2)CC1 (centres undefined)
measured_on: NCI-H1975
inhibition at 10 µM: 32.2%

Query: Provide value of inhibition at 10 µM for this record tested with NCI-H1975: CN(C)c1ccc(C2CC(c3ccc(-n4cncn4)cc3)=NN2S(C)(=O)=O)cc1 (centres undefined)
Result: -3.1%
